molecular target: human immuno proteasome (LMP7) (Homo sapiens (Human), UniProt P28062); test: Determination of LMP7 activity (fluorescence intensity assay, Suc-LLVY-AMC); type: biochemical; details: long incubation (120 min)
property label: IC50

record_smiles=C=CC(=O)N(CC(=O)N[C@@H](Cc1ccc(Cl)cc1)B(O)O)c1ccccc1F target="human immuno proteasome (LMP7) (Homo sapiens (Human), UniProt P28062)" property_label=IC50 measured_result="< 0.05 µM"
record_smiles=C=CC(=O)N(CC)CC(=O)N[C@@H](Cc1ccc(Cl)c(Cl)c1)B(O)O target="human immuno proteasome (LMP7) (Homo sapiens (Human), UniProt P28062)" property_label=IC50 measured_result="< 0.05 µM"
record_smiles=C=CC(=O)N(CC(=O)N[C@@H](Cc1ccc(C)cc1C)B(O)O)c1cc(F)ccc1F target="human immuno proteasome (LMP7) (Homo sapiens (Human), UniProt P28062)" property_label=IC50 measured_result="< 0.05 µM"
record_smiles=C=CC(=O)N(CC(=O)N[C@@H](CCc1ccccc1)B(O)O)c1ccccc1F target="human immuno proteasome (LMP7) (Homo sapiens (Human), UniProt P28062)" property_label=IC50 measured_result="< 0.05 µM"
record_smiles=C=CC(=O)N(CC)CC(=O)N[C@H](Cc1ccsc1)B(O)O target="human immuno proteasome (LMP7) (Homo sapiens (Human), UniProt P28062)" property_label=IC50 measured_result="0.5 to 5 µM"
record_smiles=C=CC(=O)N(CC)CC(=O)N[C@@H](Cc1cccc2ccccc12)B(O)O target="human immuno proteasome (LMP7) (Homo sapiens (Human), UniProt P28062)" property_label=IC50 measured_result="0.05 to 0.5 µM"
record_smiles=C=CC(=O)N(c1ccccc1)[C@H](C)C(=O)N[C@@H](Cc1ccc(C)cc1C)B(O)O target="human immuno proteasome (LMP7) (Homo sapiens (Human), UniProt P28062)" property_label=IC50 measured_result="0.05 to 0.5 µM"
record_smiles=C=CC(=O)N(CC(=O)N[C@@H](Cc1ccsc1)B(O)O)c1ccc(Cl)c(Cl)c1 target="human immuno proteasome (LMP7) (Homo sapiens (Human), UniProt P28062)" property_label=IC50 measured_result="< 0.05 µM"
record_smiles=C=CC(=O)NCC(=O)N[C@@H](Cc1ccc(C)c(C)c1)B(O)O target="human immuno proteasome (LMP7) (Homo sapiens (Human), UniProt P28062)" property_label=IC50 measured_result="< 0.05 µM"
record_smiles=C=CC(=O)N1CCCC[C@H]1C(=O)N[C@@H](Cc1ccc(C)cc1C)B(O)O target="human immuno proteasome (LMP7) (Homo sapiens (Human), UniProt P28062)" property_label=IC50 measured_result="0.5 to 5 µM"
record_smiles=C=CC(=O)N(CC)CC(=O)N[C@@H](Cc1ccc2ccccc2c1)B(O)O target="human immuno proteasome (LMP7) (Homo sapiens (Human), UniProt P28062)" property_label=IC50 measured_result="< 0.05 µM"
record_smiles=C=CC(=O)N(c1ccccc1)[C@H](C)C(=O)N[C@@H](Cc1ccc(C)c(C)c1)B(O)O target="human immuno proteasome (LMP7) (Homo sapiens (Human), UniProt P28062)" property_label=IC50 measured_result="0.05 to 0.5 µM"
record_smiles=C=CC(=O)N(CC#N)CC(=O)N[C@@H](Cc1ccc(C)cc1C)B(O)O target="human immuno proteasome (LMP7) (Homo sapiens (Human), UniProt P28062)" property_label=IC50 measured_result="< 0.05 µM"
record_smiles=C=CC(=O)N(CC(=O)N[C@@H](Cc1ccc(Cl)cc1Cl)B(O)O)C1CC1 target="human immuno proteasome (LMP7) (Homo sapiens (Human), UniProt P28062)" property_label=IC50 measured_result="< 0.05 µM"
record_smiles=C=CC(=O)N(C)CC(=O)N[C@@H](Cc1ccc(C(F)(F)F)cc1C)B(O)O target="human immuno proteasome (LMP7) (Homo sapiens (Human), UniProt P28062)" property_label=IC50 measured_result="< 0.05 µM"
record_smiles=C=CC(=O)N(C)CC(=O)N[C@@H](Cc1ccc(Cl)cc1Cl)B(O)O target="human immuno proteasome (LMP7) (Homo sapiens (Human), UniProt P28062)" property_label=IC50 measured_result="< 0.05 µM"
record_smiles=C=CC(=O)N(CC)CC(=O)N[C@@H](Cc1ccsc1)B(O)O target="human immuno proteasome (LMP7) (Homo sapiens (Human), UniProt P28062)" property_label=IC50 measured_result="< 0.05 µM"
record_smiles=C=CC(=O)N(CC(=O)N[C@@H](Cc1ccc(C)cc1C)B(O)O)c1c(F)cccc1F target="human immuno proteasome (LMP7) (Homo sapiens (Human), UniProt P28062)" property_label=IC50 measured_result="< 0.05 µM"
record_smiles=CCN(CC(=O)N[C@@H](Cc1ccc(C)cc1C)B(O)O)C(=O)/C=C/CN(C)C target="human immuno proteasome (LMP7) (Homo sapiens (Human), UniProt P28062)" property_label=IC50 measured_result="< 0.05 µM"
record_smiles=C=CC(=O)N1CCC[C@@H]1C(=O)N[C@@H](Cc1ccc(C)cc1C)B(O)O target="human immuno proteasome (LMP7) (Homo sapiens (Human), UniProt P28062)" property_label=IC50 measured_result="0.5 to 5 µM"
record_smiles=C=CC(=O)N(CC(=O)N[C@@H](Cc1ccsc1)B(O)O)c1ccccc1F target="human immuno proteasome (LMP7) (Homo sapiens (Human), UniProt P28062)" property_label=IC50 measured_result="< 0.05 µM"
record_smiles=C=CC(=O)N1CCCC[C@@H]1C(=O)N[C@@H](Cc1ccc(C)cc1C)B(O)O target="human immuno proteasome (LMP7) (Homo sapiens (Human), UniProt P28062)" property_label=IC50 measured_result="0.05 to 0.5 µM"
record_smiles=C=CC(=O)N(CC(=O)N[C@@H](Cc1ccccc1)B(O)O)c1ccccc1F target="human immuno proteasome (LMP7) (Homo sapiens (Human), UniProt P28062)" property_label=IC50 measured_result="< 0.05 µM"
record_smiles=C=CC(=O)N(CC(=O)N[C@@H](Cc1coc2ccccc12)B(O)O)c1ccccc1F target="human immuno proteasome (LMP7) (Homo sapiens (Human), UniProt P28062)" property_label=IC50 measured_result="< 0.05 µM"
record_smiles=C=CC(=O)N(CC(=O)N[C@@H](Cc1cccc(F)c1)B(O)O)c1ccccc1F target="human immuno proteasome (LMP7) (Homo sapiens (Human), UniProt P28062)" property_label=IC50 measured_result="< 0.05 µM"
record_smiles=C=CC(=O)N(CC)CC(=O)N[C@@H](Cc1ccc(Cl)cc1Cl)B(O)O target="human immuno proteasome (LMP7) (Homo sapiens (Human), UniProt P28062)" property_label=IC50 measured_result="0.05 to 0.5 µM"
record_smiles=CCN(CC(=O)N[C@@H](Cc1ccc(C)cc1C)B(O)O)C(=O)/C=C/C(=O)N(C)C target="human immuno proteasome (LMP7) (Homo sapiens (Human), UniProt P28062)" property_label=IC50 measured_result="0.05 to 0.5 µM"
record_smiles=C=CC(=O)N(CC(=O)N[C@@H](Cc1ccsc1)B(O)O)c1cccc(CC)c1 target="human immuno proteasome (LMP7) (Homo sapiens (Human), UniProt P28062)" property_label=IC50 measured_result="< 0.05 µM"
record_smiles=C=CC(=O)N(CC)CC(=O)N[C@@H](Cc1ccc(C(F)(F)F)cc1C)B(O)O target="human immuno proteasome (LMP7) (Homo sapiens (Human), UniProt P28062)" property_label=IC50 measured_result="0.05 to 0.5 µM"
record_smiles=C=CC(=O)N(CC(=O)N[C@@H](Cc1ccsc1)B(O)O)c1cccc(C(=O)N(C)C)c1 target="human immuno proteasome (LMP7) (Homo sapiens (Human), UniProt P28062)" property_label=IC50 measured_result="< 0.05 µM"
record_smiles=C=CC(=O)N(CC(=O)N[C@@H](Cc1ccc(C)cc1C)B(O)O)CC(F)(F)F target="human immuno proteasome (LMP7) (Homo sapiens (Human), UniProt P28062)" property_label=IC50 measured_result="0.05 to 0.5 µM"
record_smiles=C=CC(=O)N(CC(=O)N[C@@H](Cc1ccsc1)B(O)O)C1CC1 target="human immuno proteasome (LMP7) (Homo sapiens (Human), UniProt P28062)" property_label=IC50 measured_result="< 0.05 µM"

Data origin: patent US10669289B2
